test system: HCT-15 colon; assay: NCI-60 one-dose screen, 48 h (100 = growth as untreated, 0 = no growth, -100 = all killed); details: 10 µM
The panel holds about 83,000 compounds, 20% with a hit somewhere; the sample as a whole holds those more often.
QUANTITY MEASURED: growth (%)
Give bare numbers, in %.

Please review the entries below; each comes with its answer.
O=C1C=CC(=O)N1c1ccc(N2C(=O)C=CC2=O)cc1 91.4
O=C1c2cccc3cc([N+](=O)[O-])cc(c23)C(=O)N1CCN1CCCC1 -7.27

Now look at this entry.
Prompt: Consider the compound O=[N+]([O-])c1cc(S(=O)(=O)Nc2ccccc2)ccc1Cl and give its measured growth.
Completion: 96.5

Cited source: PubChem BioAssay (NCI)
